Target: E. coli RNase P holoenzyme (M1 P RNA + rnpA protein)
Sequence: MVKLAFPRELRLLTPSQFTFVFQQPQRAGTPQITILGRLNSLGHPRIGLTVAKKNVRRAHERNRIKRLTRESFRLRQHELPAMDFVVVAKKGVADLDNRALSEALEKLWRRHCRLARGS
Assay: relative kcat/Km (krel) vs genomic leader AAAGAU (relative (reference leader = 1)); higher = faster RNase P cleavage
Details: fraction of substrate reacted: ~9-10% (9.79% repeat 1, 9.1% repeat 2)
Whole data set: some 4,100 sequences, median “relative kcat/Km (krel) vs genomic leader AAAGAU” near 1.7, cut for the highest 2% near 6.5. This is one part of a sample in which the highest values are shown more often than they occur.
Rule: t for relative kcat/Km not less than 3, f for anything less.

Prompt: Reported relative kcat/Km at or above 3? TTAATA
Response: f

Prompt: Reported relative kcat/Km at or above 3? CACTTT
Response: t

Prompt: Reported relative kcat/Km at or above 3? ATCGCA
Response: t

Prompt: Reported relative kcat/Km at or above 3? AGTACT
Response: f

Prompt: Reported relative kcat/Km at or above 3? GTCTAA
Response: t

Prompt: Reported relative kcat/Km at or above 3? TACACG
Response: f

Prompt: Reported relative kcat/Km at or above 3? GACTCA
Response: t

Prompt: Reported relative kcat/Km at or above 3? TCATAC
Response: t

Prompt: Reported relative kcat/Km at or above 3? TCCTTA
Response: t

Prompt: Reported relative kcat/Km at or above 3? TTCTCA
Response: t

Prompt: Reported relative kcat/Km at or above 3? CTACAC
Response: f

Prompt: Reported relative kcat/Km at or above 3? TCACGC
Response: f

Prompt: Reported relative kcat/Km at or above 3? GCCCAG
Response: f

Prompt: Reported relative kcat/Km at or above 3? GTATCT
Response: f

Prompt: Reported relative kcat/Km at or above 3? ATTACA
Response: f

Prompt: Reported relative kcat/Km at or above 3? GGCTAC
Response: f

Prompt: Reported relative kcat/Km at or above 3? TAATAT
Response: t

Prompt: Reported relative kcat/Km at or above 3? TCCTTC
Response: t

Prompt: Reported relative kcat/Km at or above 3? CACGAT
Response: f

Prompt: Reported relative kcat/Km at or above 3? TGCTCT
Response: f

Prompt: Reported relative kcat/Km at or above 3? CGTCAA
Response: f

Prompt: Reported relative kcat/Km at or above 3? TTTAGA
Response: f

Prompt: Reported relative kcat/Km at or above 3? CCCTTT
Response: f

Prompt: Reported relative kcat/Km at or above 3? GACGAA
Response: t

Prompt: Reported relative kcat/Km at or above 3? CTCCAC
Response: t

Prompt: Reported relative kcat/Km at or above 3? CCCTAC
Response: t

Prompt: Reported relative kcat/Km at or above 3? TCATAT
Response: t

Prompt: Reported relative kcat/Km at or above 3? TACGAA
Response: f

Prompt: Reported relative kcat/Km at or above 3? GTGTAA
Response: f

Prompt: Reported relative kcat/Km at or above 3? TCATAA
Response: t

Prompt: Reported relative kcat/Km at or above 3? TCTGTT
Response: f

Prompt: Reported relative kcat/Km at or above 3? GACCGA
Response: t

Prompt: Reported relative kcat/Km at or above 3? GTCTAG
Response: t

Prompt: Reported relative kcat/Km at or above 3? GTGCAA
Response: f

Prompt: Reported relative kcat/Km at or above 3? AACGCG
Response: f

Prompt: Reported relative kcat/Km at or above 3? AGCTCA
Response: f

Prompt: Reported relative kcat/Km at or above 3? TACGAC
Response: t

Prompt: Reported relative kcat/Km at or above 3? AAGCAT
Response: f

Prompt: Reported relative kcat/Km at or above 3? TCCTAC
Response: t

Prompt: Reported relative kcat/Km at or above 3? CTCCCC
Response: f

Prompt: Reported relative kcat/Km at or above 3? CTCCAA
Response: t

Prompt: Reported relative kcat/Km at or above 3? TACGTA
Response: f

Prompt: Reported relative kcat/Km at or above 3? GTACGC
Response: f

Prompt: Reported relative kcat/Km at or above 3? TCATAG
Response: f

Prompt: Reported relative kcat/Km at or above 3? CGTCAC
Response: t

Prompt: Reported relative kcat/Km at or above 3? CGTCAG
Response: f

Prompt: Reported relative kcat/Km at or above 3? TTCTAG
Response: t

Prompt: Reported relative kcat/Km at or above 3? TATACC
Response: f

Prompt: Reported relative kcat/Km at or above 3? TACAGA
Response: t

Prompt: Reported relative kcat/Km at or above 3? ATCTCA
Response: t

Prompt: Reported relative kcat/Km at or above 3? GTCGCC
Response: t

Prompt: Reported relative kcat/Km at or above 3? ACGAAA
Response: f

Prompt: Reported relative kcat/Km at or above 3? TACTTT
Response: t

Prompt: Reported relative kcat/Km at or above 3? TCCTAT
Response: t

Prompt: Reported relative kcat/Km at or above 3? TACAGC
Response: t

Prompt: Reported relative kcat/Km at or above 3? CAATAT
Response: t

Prompt: Reported relative kcat/Km at or above 3? ACCTAT
Response: t

Prompt: Reported relative kcat/Km at or above 3? CACAGC
Response: t

Prompt: Reported relative kcat/Km at or above 3? TACCGC
Response: t

Prompt: Reported relative kcat/Km at or above 3? TTCCAT
Response: t

Prompt: Reported relative kcat/Km at or above 3? TGTATC
Response: f

Prompt: Reported relative kcat/Km at or above 3? TCCTTT
Response: t

Prompt: Reported relative kcat/Km at or above 3? CGTCGC
Response: f

Prompt: Reported relative kcat/Km at or above 3? CGTCCT
Response: f

Prompt: Reported relative kcat/Km at or above 3? GTCTCT
Response: t

Prompt: Reported relative kcat/Km at or above 3? GACGTA
Response: f

Prompt: Reported relative kcat/Km at or above 3? CGTCAT
Response: f

Prompt: Reported relative kcat/Km at or above 3? GTCTCA
Response: t

Prompt: Reported relative kcat/Km at or above 3? ATCATA
Response: t

Prompt: Reported relative kcat/Km at or above 3? CACGAC
Response: t

Prompt: Reported relative kcat/Km at or above 3? TATGCC
Response: f

Prompt: Reported relative kcat/Km at or above 3? CAGGAG
Response: f

Prompt: Reported relative kcat/Km at or above 3? GTGCAC
Response: f

Prompt: Reported relative kcat/Km at or above 3? GGCTAA
Response: f

Prompt: Reported relative kcat/Km at or above 3? AATGTT
Response: f

Prompt: Reported relative kcat/Km at or above 3? CTCTAC
Response: t

Prompt: Reported relative kcat/Km at or above 3? GTCGCA
Response: t

Prompt: Reported relative kcat/Km at or above 3? GTCATA
Response: t

Prompt: Reported relative kcat/Km at or above 3? TTCCCT
Response: t

Prompt: Reported relative kcat/Km at or above 3? TTTAAT
Response: t

Prompt: Reported relative kcat/Km at or above 3? TGCCAT
Response: f

Prompt: Reported relative kcat/Km at or above 3? GTCTAC
Response: t

Prompt: Reported relative kcat/Km at or above 3? ATCGCG
Response: f

Prompt: Reported relative kcat/Km at or above 3? TGCTAG
Response: f

Prompt: Reported relative kcat/Km at or above 3? ACATCT
Response: f

Prompt: Reported relative kcat/Km at or above 3? GTCGCT
Response: f

Prompt: Reported relative kcat/Km at or above 3? GTGTCT
Response: f

Prompt: Reported relative kcat/Km at or above 3? CGGAGG
Response: f

Prompt: Reported relative kcat/Km at or above 3? CTCCAG
Response: f

Prompt: Reported relative kcat/Km at or above 3? ATCTAA
Response: t

Prompt: Reported relative kcat/Km at or above 3? AACACT
Response: f

Prompt: Reported relative kcat/Km at or above 3? GCCTAC
Response: t

###

Assignment: determine reported relative kcat/Km for the given sequences.
Target: E. coli RNase P holoenzyme (M1 P RNA + rnpA protein) (UniProt P0A7Y8)
Sequence: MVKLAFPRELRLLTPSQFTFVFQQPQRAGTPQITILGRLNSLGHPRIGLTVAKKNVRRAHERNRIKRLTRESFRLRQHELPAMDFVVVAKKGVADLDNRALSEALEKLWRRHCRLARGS
Assay: relative kcat/Km (krel) vs genomic leader AAAGAU (relative (reference leader = 1)); higher = faster RNase P cleavage
Settings: fraction of substrate reacted: ~9-10% (9.79% repeat 1, 9.1% repeat 2)
Whole data set: some 4,100 sequences, median “relative kcat/Km (krel) vs genomic leader AAAGAU” near 1.7, cut for the highest 2% near 6.5. Many of the other results were omitted from the sample, so the highest values are more common in it than they were.
Give the value as a plain number.

Short answer on E. coli RNase P holoenzyme (M1 P RNA + rnpA protein) (UniProt P0A7Y8) for TTCAAC , relative kcat/Km: 4.99

Short answer on E. coli RNase P holoenzyme (M1 P RNA + rnpA protein) (UniProt P0A7Y8) for GGATAC , relative kcat/Km: 1.9

Short answer on E. coli RNase P holoenzyme (M1 P RNA + rnpA protein) (UniProt P0A7Y8) for GCTGTC , relative kcat/Km: 1.58

Short answer on E. coli RNase P holoenzyme (M1 P RNA + rnpA protein) (UniProt P0A7Y8) for TGATTA , relative kcat/Km: 2.2

Short answer on E. coli RNase P holoenzyme (M1 P RNA + rnpA protein) (UniProt P0A7Y8) for CTCAAC , relative kcat/Km: 3.75

Short answer on E. coli RNase P holoenzyme (M1 P RNA + rnpA protein) (UniProt P0A7Y8) for AATGCC , relative kcat/Km: 2.38

Short answer on E. coli RNase P holoenzyme (M1 P RNA + rnpA protein) (UniProt P0A7Y8) for ACGCAC , relative kcat/Km: 1.83

Short answer on E. coli RNase P holoenzyme (M1 P RNA + rnpA protein) (UniProt P0A7Y8) for CTTAAC , relative kcat/Km: 2.53

Short answer on E. coli RNase P holoenzyme (M1 P RNA + rnpA protein) (UniProt P0A7Y8) for CAAGAT , relative kcat/Km: 1.15

Short answer on E. coli RNase P holoenzyme (M1 P RNA + rnpA protein) (UniProt P0A7Y8) for TTCAAA , relative kcat/Km: 4.87

Short answer on E. coli RNase P holoenzyme (M1 P RNA + rnpA protein) (UniProt P0A7Y8) for AGTAAT , relative kcat/Km: 2.83

Short answer on E. coli RNase P holoenzyme (M1 P RNA + rnpA protein) (UniProt P0A7Y8) for ATTGAA , relative kcat/Km: 2.28

Short answer on E. coli RNase P holoenzyme (M1 P RNA + rnpA protein) (UniProt P0A7Y8) for AAATAT , relative kcat/Km: 1.72

Short answer on E. coli RNase P holoenzyme (M1 P RNA + rnpA protein) (UniProt P0A7Y8) for TCCGCC , relative kcat/Km: 4.39

Short answer on E. coli RNase P holoenzyme (M1 P RNA + rnpA protein) (UniProt P0A7Y8) for CGCTGG , relative kcat/Km: 0.49

Short answer on E. coli RNase P holoenzyme (M1 P RNA + rnpA protein) (UniProt P0A7Y8) for TTCAAG , relative kcat/Km: 2.98

Short answer on E. coli RNase P holoenzyme (M1 P RNA + rnpA protein) (UniProt P0A7Y8) for TCCGCA , relative kcat/Km: 4.56

Short answer on E. coli RNase P holoenzyme (M1 P RNA + rnpA protein) (UniProt P0A7Y8) for CGATGC , relative kcat/Km: 2.88

Short answer on E. coli RNase P holoenzyme (M1 P RNA + rnpA protein) (UniProt P0A7Y8) for TGAGAC , relative kcat/Km: 2.71

Short answer on E. coli RNase P holoenzyme (M1 P RNA + rnpA protein) (UniProt P0A7Y8) for CCTTTC , relative kcat/Km: 2.13

Short answer on E. coli RNase P holoenzyme (M1 P RNA + rnpA protein) (UniProt P0A7Y8) for TGCAAC , relative kcat/Km: 1.87

Short answer on E. coli RNase P holoenzyme (M1 P RNA + rnpA protein) (UniProt P0A7Y8) for ACAGAT , relative kcat/Km: 0.729

Short answer on E. coli RNase P holoenzyme (M1 P RNA + rnpA protein) (UniProt P0A7Y8) for TATCTA , relative kcat/Km: 2.06
